Value source: patent US20240254129A1

# testedSystem: wildtype Kras / hSOS1 (Homo sapiens, UniProt P01116)
# Construct: made in house; host or cells: E. coli BL21 (DE3)
# Sequence (P01116 1-188 isoform P01116-2): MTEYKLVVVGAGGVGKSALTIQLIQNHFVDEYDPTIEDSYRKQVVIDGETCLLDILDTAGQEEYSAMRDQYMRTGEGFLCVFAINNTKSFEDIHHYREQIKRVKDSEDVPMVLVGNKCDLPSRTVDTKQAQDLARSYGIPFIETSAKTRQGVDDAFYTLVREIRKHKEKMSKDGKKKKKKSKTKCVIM
# experimentalDetails: HTRF assay, wildtype Kras / SOS1 interaction
# Assay type: binding
# setupConditions: compound nos. 401-703; read-out: IC50 against wildtype Kras
measurementKind: IC50

Sample records with IC50:
| compound | measurementKind | assayResult |
| --- | --- | --- |
| CN1CCC[C@H]1COc1nc(N2CCCC(NC3CNC3)CC2)c2cc(Cl)c(-c3cccc4sc(N)nc34)c(F)c2n1 (stereo partly shown) | IC50 | > 500 nM |
| Nc1nc2c(-c3c(Cl)cc4c(N5CC6CCC(C5)N6)nc(OCC5(CN6CCCC6)CC5)nc4c3F)cccc2o1 | IC50 | > 500 nM |
| Cc1ccc2[nH]nc(C#N)c2c1-c1ccc2c(N3CC4CCC(C3)N4)nc(OC[C@@]34CCCN3C[C@H](F)C4)nc2c1F | IC50 | > 500 nM |

Okay, now this compound:
# input compound: `Oc1cc(-c2c(Cl)cc3c(N4CC5CCC(C4)N5)nc(OCC45CCCN4CCC5)nc3c2F)cc(C(F)(F)F)c1` ; wanted: its IC50
> 500 nM

###

Form field: IC50 (one value per entry).
# testedSystem: wildtype Kras / hSOS1 (Homo sapiens)
# Construct: made in house; host or cells: E. coli BL21 (DE3)
# experimentalDetails: HTRF assay, wildtype Kras / SOS1 interaction
# Type: binding
# setupConditions: compound nos. 401-703; read-out: IC50 against wildtype Kras

Sample records with IC50:
| compound | IC50 |
| --- | --- |
| Nc1nc2c(-c3ccc4c(N5C[C@H]6CCNCC[C@H]6C5)nc(OC[C@@]56CCCN5C[C@H](F)C6)nc4c3F)ccc(F)c2s1 [Compound 408] | < 500 nM |
| NCC1C2CCC1CN(c1nc(OCC34CCCN3CCC4)nc3c(F)c(-c4ccc(F)c5sc(N)nc45)c(Cl)cc13)C2 (stereo not drawn) [Compound 406] | < 500 nM |

Okay, now this compound:
Item: N#Cc1csc2cccc(-c3c(Cl)cc4c(N5CC6CCC(C5)N6)nc(OC[C@@]56CCCN5C[C@H](F)C6)nc4c3F)c12 [Compound 674] Test system: wildtype Kras / hSOS1 (Homo sapiens) Read-out: IC50 Value: ?
> 500 nM

###

# testedSystem: GST-tagged K-Ras mutant / His-tagged hSOS1 (Homo sapiens)
# Sequence (P01116 whole entry G12D, form open): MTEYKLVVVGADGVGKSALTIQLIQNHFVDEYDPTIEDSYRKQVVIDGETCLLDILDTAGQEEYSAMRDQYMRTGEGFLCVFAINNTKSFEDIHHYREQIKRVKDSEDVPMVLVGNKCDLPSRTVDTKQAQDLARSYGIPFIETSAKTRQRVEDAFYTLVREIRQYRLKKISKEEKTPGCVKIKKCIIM
# experimentalDetails: HTRF assay, K-Ras mutant / SOS1 interaction
# Assay type: binding
# setupConditions: compound nos. 401-703; read-out: IC50 against mutant Kras
# Text: This assay can be also used to assess a selective inhibition of a mutant Ras protein relative to a wildtype, or relative to a different mutant Ras protein. For example, the equilibrium interaction of wildtype Kras or K-Ras mutant (e.g., wildtype or a mutant thereof including those mentioned in Example 6) with SOS1 (e.g., hSOS1) can be assessed as a proxy or an indication for a subject compound's ability to bind and inhibit Ras protein. […]
pIC50: −log10 of the molar value.
measurementKind: pIC50

Sample records with pIC50:
| molecule | testedSystem | pIC50 |
| --- | --- | --- |
| CN(C)CC1(COc2nc(N3CCNCC(F)(F)C3)c3cc(Cl)c(-c4ccc(F)c5sc(N)nc45)c(F)c3n2)CC1 | GST-tagged K-Ras mutant / His-tagged hSOS1 (Homo sapiens) | > 6.30 |
| Nc1nc2c(-c3c(Cl)cc4c(N5CCNCC(F)(F)C5)nc(OCCCN5CCCC5)nc4c3F)ccc(F)c2s1 | GST-tagged K-Ras mutant / His-tagged hSOS1 (Homo sapiens) | > 6.30 |
| Cc1ccc2cnn(C#N)c2c1-c1c(Cl)cc2c(N3CC4CCC(C3)N4)nc(OC[C@@]34CCCN3C[C@H](F)C4)nc2c1F | GST-tagged K-Ras mutant / His-tagged hSOS1 (Homo sapiens) | < 6.30 |
| Nc1nc2c(-c3c(Cl)cc4c(N5CCCC(O)CC5)nc(OC[C@@]56CCCN5C[C@H](F)C6)nc4c3F)ccc(F)c2s1 (stereo partly shown) | GST-tagged K-Ras mutant / His-tagged hSOS1 (Homo sapiens) | > 6.30 |

# input molecule: `COc1nc2c(N3CC4CCC(C3)N4)nc(OC[C@@]34CCCN3C[C@H](F)C4)nc2cc1-c1cc(O)cc2ccccc12` ; wanted: its pIC50
< 6.30

# input molecule: `Nc1c(-c2c(Cl)cc3c(N4CC5CCC(C4)N5)nc(OCC45CCCN4CCC5)nc3c2F)cccc1C1CC1` ; wanted: its pIC50
< 6.30

# input molecule: Nc1nc2c(-c3c(Cl)cc4c(N5CC6CCCC(C5)NC6)nc(OC[C@@]56CCCN5C[C@H](F)C6)nc4c3F)ccc(F)c2s1 (stereo partly shown) ; wanted: its pIC50
> 6.30
